The values you see were collected from ChEMBL document CHEMBL1201862.

Tested on: CCRF-CEM
Experiment: NCI tumour cell line growth inhibition, 48 h
Active and inactive are the calls of the source. Rule as the data show it: active = GI50 up to about 1.1 µM and inactive = higher.
# Lookup of reported GI50 keyed by entry

Record excerpt, results attached:
[[record]]
molecule = "OCC1OC(n2nc(-c3ccccc3)nc2-c2cnccn2)C(O)C1O (centres undefined)"
result = "> 100 µM (inactive)"

[[record]]
molecule = "COc1cc(C2=NNC(=O)c3ccccc3N2c2nc(-c3cccs3)nc3ccc(Br)cc23)cc(OC)c1OC"
result = "1.45 µM (inactive)"

[[record]]
molecule = "CC1=NC(C(=O)O)Cc2c1[nH]c1ccccc21 (centres undefined)"
result = "> 100 µM (inactive)"

[[record]]
molecule = "NCCC(N)C(=O)O (centres undefined)"
result = "> 100 µM (inactive)"

[[record]]
molecule = "Cc1nc2c(Br)cc(Br)cc2c(=O)n1-c1ccccc1NC1OC(CO)C(O)C(O)C1O (centres undefined)"
result = "> 100 µM (inactive)"


Measured GI50, CCOC(=O)CC(NC(=O)c1ccc(/N=N/N(C)C)cc1)C(=O)OCC (centres undefined) : > 100 µM (inactive)

Measured GI50, `N#CC(=N)c1ncn(-c2ccccc2N)c1N` : > 100 µM (inactive)

Measured GI50, `COC(=O)CCC(=O)c1ccc2c(c1)CC1(C2)Cc2ccc(C(=O)CCC(=O)OC)cc2C1` : > 100 µM (inactive)

Measured GI50, Cc1ccc(S(=O)(=O)N/N=C2\CC3C4C=CC3C2C4)cc1 (centres undefined) : > 100 µM (inactive)

Measured GI50, `O=S(=O)(O)c1ccc2c(/N=N/c3c(O)ccc4ccccc34)cccc2c1` : 70.6 µM (inactive)

Measured GI50, CC(=O)O[C@H]1C(=O)[C@@]2(C)C(C(OC(=O)c3ccccc3)C3[C@@H](O)C(OC(=O)[C@@H](O)[C@H](NC(=O)c4ccccc4)c4ccc(C(F)(F)F)cc4)C(C)=C1C3(C)C)[C@]1(OC(C)=O)CO[C@@H]1C[C@@H]2O (some centres undefined) : 18.2 µM (inactive)
